# Test system: Human betaherpesvirus 5
# experiment-summary: Antiviral activity against (S)-3-hydroxy-2-phosphonomethoxypropyl adenine-resistant HCMV with DNA polymerase mutant in HEL cells assessed as reduction of virus-induced cytopathogenicity
# Format: functional, organism-based
# condition-info: Human betaherpesvirus 5, HEL
assay-readout: EC50 (µg/mL)
Field: numeric (µg/mL). Do not append units.

Nc1ncnc2c1ncn2C[C@@H](CO)OCP(=O)(O)O	6.2
Cc1cn([C@@H]2O[C@H](CO[Si](C)(C)C(C)(C)C(C)C)[C@@]3(OS(=O)(=O)C=C3NC(=O)NC(=O)c3ccccc3)[C@H]2O[Si](C)(C)C(C)(C)C(C)C)c(=O)n(C)c1=O	5.6
Cc1cn([C@@H]2O[C@H](CO[Si](C)(C)C(C)(C)C(C)C)[C@@]3(OS(=O)(=O)C=C3NC(=O)NC(=O)c3ccccc3)[C@H]2O[Si](C)(C)C(C)(C)C)c(=O)n(C)c1=O	3.1

With those in mind, consider the next compound.
So for Nc1ncnc2c1ncn2CCOCP(=O)(O)O , the logged EC50 turned out to be 9.1

====

The entries below come with measured MCC at 72 h values attached.
# experiment-summary: Cytotoxicity against HEL cells assessed as alteration in cell morphology after 3 days
# Format: cell-based
# condition-info: human

Here are 5 compounds together with their reported answers.
Cc1cn([C@@H]2O[C@H](CO[Si](C)(C)C(C)(C)C)[C@@]3(OS(=O)(=O)C=C3NC(=O)NC(=O)c3ccccc3)[C@H]2O)c(=O)n(C)c1=O	> 100 µM
CC(C)(C)[Si](C)(C)OCCC1(CO[Si](C)(C)C(C)(C)C)OS(=O)(=O)C=C1NC(=O)NC(=O)c1ccccc1 (stereo not given)	> 100 µM
Cc1cn([C@@H]2O[C@H](COC(=O)c3ccccc3)[C@@]3(OS(=O)(=O)C=C3NC(=O)NC(=O)c3ccccc3)[C@H]2O[Si](C)(C)C(C)(C)C)c(=O)n(C)c1=O	≥ 5 µM
Cc1cn([C@@H]2O[C@H](CO[Si](C)(C)C(C)(C)C)[C@@]3(OS(=O)(=O)C=C3NC(=O)NC(=O)c3ccccc3)[C@H]2O[Si](C)(C)C(C)(C)C(C)C)c(=O)n(C)c1=O	≥ 100 µM
Cc1cn([C@@H]2O[C@H](CO[Si](C)(C)C(C)(C)C(C)C)[C@@]3(OS(=O)(=O)C=C3NC(=O)NC(=O)c3ccccc3)[C@H]2O[Si](C)(C)C(C)(C)C)c(=O)n(C)c1=O	≥ 100 µM

So for Cc1cn([C@@H]2O[C@H](COC(=O)c3ccccc3)[C@@]3(OS(=O)(=O)C=C3NC(=O)NC(=O)c3ccccc3)[C@H]2O)c(=O)n(C)c1=O , the logged MCC at 72 h turned out to be > 100 µM

So for CCOC(=O)CNC(=O)NC1=CS(=O)(=O)O[C@@]12[C@@H](CO[Si](C)(C)C(C)(C)C)O[C@@H](n1cc(C)c(=O)n(C)c1=O)[C@@H]2O[Si](C)(C)C(C)(C)C , the logged MCC at 72 h turned out to be 16 µM

====

# System: Human betaherpesvirus 5
# experiment-summary: Antiviral activity against ganciclovir-resistant HCMV with DNA polymerase mutant in HEL cells assessed as reduction of virus-induced cytopathogenicity
# Assay type: functional, organism-based
# condition-info: Human betaherpesvirus 5, HEL
assay-readout: EC50 (µg/mL)
Field: numeric (µg/mL). Do not append units.

Here are 5 compounds together with their reported answers.
Nc1nc(N)c2ncn(CCOCP(=O)(O)O)c2n1	1.6
O=C(O)P(=O)(O)O	17
Nc1nc2c(ncn2COCCO)c(=O)[nH]1	4.8
Nc1ncnc2c1ncn2CCOCP(=O)(O)O	5.8
Nc1ccn(C[C@@H](CO)OCP(=O)(O)O)c(=O)n1.O.O	0.59

With those in mind, consider the next compound.
So for Nc1nc2c(ncn2COC(CO)CO)c(=O)[nH]1 , the logged EC50 turned out to be 7.6
